Study the reported IC50 values for Lysosomal acid glucosylceramidase (Homo sapiens) given below; they originate from different publications.
measurement type: IC50 (µM)

a. OC[C@H]1[C@@H](O)[C@H](O)[C@@H](O)CN1CCCCCCOCC12CC3CC(CC(C3)C1)C2
b. OCCNc1nc(Nc2ccccc2Oc2ccccc2)nc(N2CCCC2)n1
c. CCCOCCCCCCN1C[C@@H](O)[C@@H](O)[C@H](O)C1=O
d. CCCC[C@H]1N[C@H](CO)[C@@H](O)[C@H](O)[C@H]1O
Sort the compounds on IC50; start with the lowest figure. Kindly provide the labels arranged according to the requested ordering.
a, b, d, c
(a: 5 µM, b: 21.7 µM, d: 70 µM, c: 127 µM)

A. OCCNc1nc(Nc2ccc(Cl)cc2)nc(N2CCCC2)n1
B. Cc1ccccc1Nc1nc(NCCO)nc(N2CCCC2)n1
Which value of IC50 is greater, the one for A or the one for B ? Give the chosen item's label as your response.
A

---

Study the reported IC50 values for UniProt P04062 given below; they originate from different publications.
measurement type: IC50 (µM)

A. OC[C@H]1[C@@H](O)[C@H](O)[C@@H](O)CN1CCCC/C=C\C12CC3CC(CC(C3)C1)C2
B. COc1ccccc1Nc1nc(NCC(O)Cc2ccccc2)nc(N2CCCC2)n1 (stereo unspecified)
C. CCCCCCCCCCN1C[C@H](O)[C@@H](O)[C@H](O)C1=O
Sort the molecules on IC50; start with the lowest figure. Kindly provide the labels arranged according to the requested ordering.
B, A, C

---

Study the reported pIC50 values for the protein given by its sequence given below; they originate from different publications.
Sequence of the target: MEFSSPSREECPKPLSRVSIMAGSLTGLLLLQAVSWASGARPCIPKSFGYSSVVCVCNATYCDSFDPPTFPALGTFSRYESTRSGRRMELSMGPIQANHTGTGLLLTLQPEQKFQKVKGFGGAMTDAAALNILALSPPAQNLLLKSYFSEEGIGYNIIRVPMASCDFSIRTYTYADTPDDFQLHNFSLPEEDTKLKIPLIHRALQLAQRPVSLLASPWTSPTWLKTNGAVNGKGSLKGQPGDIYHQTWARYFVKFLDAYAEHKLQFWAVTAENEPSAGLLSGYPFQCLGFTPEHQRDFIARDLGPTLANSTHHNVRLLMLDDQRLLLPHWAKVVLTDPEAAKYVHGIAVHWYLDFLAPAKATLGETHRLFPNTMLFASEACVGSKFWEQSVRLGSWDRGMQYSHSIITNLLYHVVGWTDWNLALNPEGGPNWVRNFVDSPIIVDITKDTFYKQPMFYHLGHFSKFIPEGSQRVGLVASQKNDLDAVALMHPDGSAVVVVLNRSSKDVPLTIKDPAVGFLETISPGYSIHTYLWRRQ
pIC50: −log10 of the molar value.
measurement type: pIC50

See these solved cases before continuing.
OC[C@@H]1[C@@H](O)[C@H](O)[C@@H](O)CN1CCCCCOCC1C2CC3CC(C2)CC1C3 (some centres not stated) ... 6.40
O=C(CCCN1[C@H](CO)[C@@H](O)[C@H](O)[C@@H]1CO)NC12CC3CC(CC(C3)C1)C2 ... 3.29
CCCCCCCCCCN1C[C@@H](O)[C@@H](O)[C@@H](O)C1=O ... 3.33
Cc1cccc(Nc2nc(NCCO)nc(N3CCCC3)n2)c1 ... 5.21
OCCNc1nc(Nc2ccccc2OC(F)(F)F)nc(N2CCCC2)n1 ... 5.48
Cc1ccc(Nc2nc(NCCO)nc(N3CCCC3)n2)cc1 ... 5.00
OC[C@H]1[C@@H](O)[C@H](O)[C@@H](O)CN1CCCCCOCC1C2CC3CC(C2)CC1C3 (some centres not stated) ... 5.00
CCCCNc1nc(NCCO)nc(Nc2ccccc2OC)n1 ... 5.21
COc1ccc(Nc2nc(NCCO)nc(N3CCCC3)n2)cc1 ... 5.06
COc1ccc(-c2cn(C[C@H]3NC[C@@H](O)[C@H]3O)nn2)cc1 ... 4.51

A. C[Si](C)(C)Cc1cn(C[C@@H]2NC[C@@H](O)[C@H]2O)nn1
B. CC(C)Oc1ccc(Cl)cc1Nc1nc(NCCO)nc(N2CCCC2)n1
Which value of pIC50 is greater, the one for A or the one for B ? Give the chosen item's label as your response.
B
(B: 5.46, A: 4.72)

1. O=C(CCCN1C[C@H](CO)[C@@H](O)[C@H](O)C1)NC12CC3CC(CC(C3)C1)C2
2. OC[C@@H]1[C@@H](O)[C@H](O)[C@@H](O)CN1CC(F)(F)CCCOCc1ccc(-c2ccccc2)cc1
3. OC[C@@H]1[C@@H](O)[C@H](O)[C@@H](O)CN1CCCCCOCC1CCCCC1
4. O[C@@H]1[C@H](O)CN[C@H]1Cn1cc(-c2ccccc2)nn1
5. O=C(CCCCCN1C[C@H](CO)[C@@H](O)[C@H](O)C1)NC12CC3CC(CC(C3)C1)C2
List items by pIC50 in falling order. Kindly provide the labels arranged according to the requested ordering.
2, 3, 4, 1, 5

P. OC[C@@H]1[C@@H](O)[C@H](O)[C@@H](O)CN1CCCCCCC12CC3CC(CC(C3)C1)C2
Q. COc1ccccc1Nc1nc(NCCO)nc(N2CCC2)n1
Which value of pIC50 is greater, the one for P or the one for Q ? Give the chosen item's label as your response.
P

---

Sequence of the target: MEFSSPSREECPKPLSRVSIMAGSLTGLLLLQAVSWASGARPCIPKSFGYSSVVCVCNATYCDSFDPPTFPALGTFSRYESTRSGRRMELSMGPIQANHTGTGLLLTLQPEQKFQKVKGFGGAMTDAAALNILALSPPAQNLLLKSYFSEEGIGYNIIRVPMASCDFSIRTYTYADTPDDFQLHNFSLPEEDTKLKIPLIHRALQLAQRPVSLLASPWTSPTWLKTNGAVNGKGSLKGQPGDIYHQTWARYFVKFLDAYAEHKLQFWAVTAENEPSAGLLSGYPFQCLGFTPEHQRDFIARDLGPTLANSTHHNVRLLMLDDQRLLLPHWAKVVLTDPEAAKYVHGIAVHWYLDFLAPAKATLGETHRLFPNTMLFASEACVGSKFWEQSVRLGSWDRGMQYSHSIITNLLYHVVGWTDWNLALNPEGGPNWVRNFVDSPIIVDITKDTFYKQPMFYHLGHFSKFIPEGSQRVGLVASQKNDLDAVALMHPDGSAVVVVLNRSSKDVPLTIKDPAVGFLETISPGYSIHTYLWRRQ
Study the reported IC50 values for the protein given by its sequence given below; they originate from different publications.
measurement type: IC50 (µM)

O=C(CCCCN1C[C@H](CO)[C@@H](O)[C@H](O)C1)NC12CC3CC(CC(C3)C1)C2 ... 11
OCCNc1nc(Nc2cc(Cl)ccc2O)nc(N2CCCC2)n1 ... 0.73
OC[C@@H]1[C@@H](O)[C@H](O)[C@@H](O)CN1CCCCCOCc1ccc(-c2cncnc2)cc1 ... 10

a. COc1ccc(-c2ccccc2)cc1Nc1nc(NCCO)nc(N2CCCC2)n1
b. C[C@@H](OCCCCCN1C[C@H](O)[C@@H](O)[C@H](O)[C@H]1CO)c1ccc(-c2ccccc2)cc1
c. OC[C@@H]1[C@@H](O)[C@H](O)[C@@H](O)CN1CCCCCCOCC12CC3CC(CC(C3)C1)C2
d. O=C(CCCCN1[C@H](CO)[C@@H](O)[C@H](O)[C@@H]1CO)NC12CC3CC(CC(C3)C1)C2
e. OCCNc1nc(Nc2ccccc2)nc(N2CCCC2)n1
Endpoint returns the given compounds ordered by ascending IC50. Kindly provide the labels arranged according to the requested ordering.
c, b, a, e, d
(c: 0.2 µM, b: 0.3 µM, a: 2.22 µM, e: 16.5 µM, d: 393 µM)

I. CC(C)(C)Oc1ccccc1Nc1nc(NCCO)nc(N2CCCC2)n1
II. O=C(CCCCCN1C[C@H](O)[C@@H](O)[C@H](O)[C@@H]1CO)NC12CC3CC(CC(C3)C1)C2
III. OCCNc1nc(Nc2ccccc2O)nc(N2CCCC2)n1
IV. COc1ccccc1Nc1nc(NCCO)nc(N2CCCC2)n1
List items by IC50 in falling order. Kindly provide the labels arranged according to the requested ordering.
II, III, IV, I

P. OC[C@@H]1[C@@H](O)[C@H](O)[C@@H](O)CN1CCCC(F)(F)COCc1ccc(-c2ccccc2)cc1
Q. CCCCCCCCN1C[C@@H](O)[C@@H](O)[C@H](O)C1=O
Identify the entry with the smaller IC50: P or Q . Give the chosen item's label as your response.
P

P. O[C@@H]1[C@H](O)CN[C@@H]1Cn1cc(-c2ccccc2)nn1
Q. CCCN(CCC)CCN1C[C@@H](O)[C@@H](O)[C@H](O)C1=O
Identify the entry with the smaller IC50: P or Q . Give the chosen item's label as your response.
P
(P: 28 µM, Q: 253 µM)
